# Experiment Description: in vivo
# Format: in vivo, BALB/cAnNCrl mice
# Test Settings: male, BALB/cAnNCrl, mouse, in vivo, iv, 1 mg/kg, plasma clearance; mice, 1 mg kg-1 iv bolus
*1 amine or outer side, *2 acyl side, *3 side chain or, on linkers, in order; H or OH if unused. Where a SMILES comes first, the peptide text is derived from it. [ ]: non-standard residue; d: D form. X1 = C#CCn1cc(C[C@H](N[*:1])C(=O)[*:2])c2ccccc21; NMeLeu(5-OH,4R) = CN[C@@H](C[C@@H](C)CO)C(=O)O; Phe(βR-OMe) = CO[C@H](c1ccccc1)[C@H](N)C(=O)O; NMeL = CN[C@@H](CC(C)C)C(=O)O
Metric: clearance (mL/min/kg)
The answer is to be given in mL/min/kg; state only the numeric part.

CO[C@H](c1ccccc1)[C@@H]1NC(=O)[C@H](C)NC(=O)[C@H](C[C@@H](C)CO)N(C)C(=O)[C@H](Cc2cn(Cc3cn(CCOCCn4cc(Cn5cc(C[C@@H]6NC(=O)[C@H](C(C)C)NC(=O)[C@H](CC(C)C)N(C)C(=O)[C@H](C(C)C)NC(=O)[C@H]([C@H](OC)c7ccccc7)NC(=O)[C@H](C)NC(=O)[C@H](C[C@@H](C)CO)N(C)C6=O)c6ccccc65)nn4)nn3)c3ccccc23)NC(=O)[C@H](C(C)C)NC(=O)[C@H](CC(C)C)N(C)C(=O)[C@H](C(C)C)NC1=O    3.73

Give me measured clearance, please, for this compound: C#CCn1cc(C[C@@H]2NC(=O)[C@H](C(C)C)NC(=O)[C@H](CC(C)C)N(C)C(=O)[C@H](C(C)C)NC(=O)[C@H]([C@H](OC)c3ccccc3)NC(=O)[C@H](C)NC(=O)[C@H](C[C@@H](C)CO)N(C)C2=O)c2ccccc21 [Compound 5] (cyclo(A[Phe(βR-OMe)]V[NMeL]V[X1][NMeLeu(5-OH,4R)])) 98.8

---

# Assay type: in vitro ADME, Human
# Test Settings: clearance in hepatocytes
*1 amine or outer side, *2 acyl side, *3 side chain or, on linkers, in order; H or OH if unused. Where a SMILES comes first, the peptide text is derived from it. [ ]: non-standard residue; d: D form. X1 = C#CCn1cc(C[C@H](N[*:1])C(=O)[*:2])c2ccccc21; NMeLeu(5-OH,4R) = CN[C@@H](C[C@@H](C)CO)C(=O)O; NMeL = CN[C@@H](CC(C)C)C(=O)O
Metric: Hepatocyte Human (%Qh)
The answer is to be given in %Qh; state only the numeric part.

Give me measured Hepatocyte Human, please, for this compound: C#CCn1cc(C[C@@H]2NC(=O)[C@H](C(C)C)NC(=O)[C@H](CC(C)C)N(C)C(=O)[C@H](C(C)C)NC(=O)[C@H](Cc3ccccc3)NC(=O)[C@H](C)NC(=O)[C@H](C[C@@H](C)CO)N(C)C2=O)c2ccccc21 [SI-72] (cyclo(AFV[NMeL]V[X1][NMeLeu(5-OH,4R)])) 12

---

Item-by-item account of Kd
# Measurement Target: UniProt P9WPC9
# Sequence (P9WPC9 1-156, looked up, natural form): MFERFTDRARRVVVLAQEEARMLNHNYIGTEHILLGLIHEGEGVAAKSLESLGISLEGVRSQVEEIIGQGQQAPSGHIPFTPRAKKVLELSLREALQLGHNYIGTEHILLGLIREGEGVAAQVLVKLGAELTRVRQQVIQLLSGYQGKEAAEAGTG
# Experiment Description: biochemical
# Format: binding
# Test Settings: SPR; read-out: ClpC1-NTD KD Mean ± SD
*1 amine or outer side, *2 acyl side, *3 side chain or, on linkers, in order; H or OH if unused. Where a SMILES comes first, the peptide text is derived from it. [ ]: non-standard residue; d: D form. X2 = C#CCn1cc(C[C@@H](C(=O)[*:2])N(C)[*:1])c2ccccc21; NMeLeu(5-OH,4R) = CN[C@@H](C[C@@H](C)CO)C(=O)O; Phe(βR-OMe) = CO[C@H](c1ccccc1)[C@H](N)C(=O)O; Trp(1-Me) = Cn1cc(C[C@H](N)C(=O)O)c2ccccc21; NMeL = CN[C@@H](CC(C)C)C(=O)O; Pra = C#CC[C@H](N)C(=O)O
The answer is to be given in nM; state only the numeric part.

Reference set, count: 4
COC(c1ccccc1)C1NC(=O)C(C)NC(=O)C(CC(C)CO)N(C)C(=O)C(Cc2cn(Cc3cn(CCOCCOCCOCCOCCn4cc(Cn5cc(CC6NC(=O)C(C(C)C)NC(=O)C(CC(C)C)N(C)C(=O)C(C(C)C)NC(=O)C(C(OC)c7ccccc7)NC(=O)C(C)NC(=O)C(CC(C)CO)N(C)C6=O)c6ccccc65)nn4)nn3)c3ccccc23)NC(=O)C(C(C)C)NC(=O)C(CC(C)C)N(C)C(=O)C(C(C)C)NC1=O (centres unmarked)    0.4
C#CCn1cc(C[C@H]2C(=O)N(C)[C@@H](C[C@@H](C)CO)C(=O)N[C@@H](C)C(=O)N[C@@H]([C@H](OC)c3ccccc3)C(=O)N[C@@H](C(C)C)C(=O)N(C)[C@@H](CC(C)C)C(=O)N[C@@H](C(C)C)C(=O)N2C)c2ccccc21 [Compound 26] (cyclo(A[Phe(βR-OMe)]V[NMeL]V[X2][NMeLeu(5-OH,4R)]))    15
CO[C@H](c1ccccc1)[C@@H]1NC(=O)[C@H](C)NC(=O)[C@H](C[C@@H](C)CO)N(C)C(=O)[C@H](Cc2cn(Cc3cn(CCOCCOCCOCCOCCn4cc(Cn5cc(C[C@H]6C(=O)N(C)[C@@H](C[C@@H](C)CO)C(=O)N[C@@H](C)C(=O)N[C@@H]([C@H](OC)c7ccccc7)C(=O)N[C@@H](C(C)C)C(=O)N(C)[C@@H](CC(C)C)C(=O)N[C@@H](C(C)C)C(=O)N6C)c6ccccc65)nn4)nn3)c3ccccc23)N(C)C(=O)[C@H](C(C)C)NC(=O)[C@H](CC(C)C)N(C)C(=O)[C@H](C(C)C)NC1=O    0.4
C#CC[C@@H]1NC(=O)[C@H](CC(C)C)N(C)C(=O)[C@H](C(C)C)NC(=O)[C@H]([C@H](OC)c2ccccc2)NC(=O)[C@H](C)NC(=O)[C@H](C[C@@H](C)CO)N(C)C(=O)[C@H](Cc2cn(C)c3ccccc23)NC1=O [Compound 10] (cyclo(A[Phe(βR-OMe)]V[NMeL][Pra][Trp(1-Me)][NMeLeu(5-OH,4R)]))    4

Kindly review the next compound as well.
Under UniProt P9WPC9: report Kd of COC(c1ccccc1)C1NC(=O)C(C)NC(=O)C(CC(C)CO)N(C)C(=O)C(Cc2cn(CC=CCn3cc(CC4NC(=O)C(C(C)C)NC(=O)C(CC(C)C)N(C)C(=O)C(C(C)C)NC(=O)C(C(OC)c5ccccc5)NC(=O)C(C)NC(=O)C(CC(C)CO)N(C)C4=O)c4ccccc43)c3ccccc23)NC(=O)C(C(C)C)NC(=O)C(CC(C)C)N(C)C(=O)C(C(C)C)NC1=O (centres unmarked) . 1.2
